Recorded values, source patent US20230143612A1.

molecular target: PD-L1 His protein / PD-1 Fc protein (Homo sapiens, UniProt Q9NZQ7); assay: HTRF Assay (PD-1/PD-L1 interaction); conditions: PD-L1 His 6 nM, PD-1 Fc 6 nM
Sequence (Q9NZQ7 19-238 limits assumed): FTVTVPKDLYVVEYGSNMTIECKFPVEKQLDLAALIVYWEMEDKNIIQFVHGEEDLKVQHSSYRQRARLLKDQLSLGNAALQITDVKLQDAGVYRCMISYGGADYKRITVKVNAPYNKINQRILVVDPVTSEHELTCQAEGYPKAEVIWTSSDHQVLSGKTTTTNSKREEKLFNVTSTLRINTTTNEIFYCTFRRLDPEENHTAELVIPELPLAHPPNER
PARAMETER: IC50
Note: a bare number is incomplete; add the unit.

Memo: `CNCCCOc1cc(C)c2nc(-c3cccc(-c4cccc(-c5cc(=O)n6cc(OCCCNC)cc(C)c6n5)c4Cl)c3Cl)cc(=O)n2c1` , reported IC50: 350 nM

Memo: Cc1c(-c2ccn3c(=O)c(CNC[C@@H]4CCC(=O)N4)cnc3c2)cccc1-c1cccc(-c2ccc3c(c2)CC(NC(=O)CN)C3)c1Cl (mixture of isomers) , reported IC50: 270 nM

Memo: `COc1nc(-c2cccc(-c3cccc(-c4ccn5c(=O)c(CN6CC[C@@H](O)C6)cnc5c4)c3Cl)c2Cl)ccc1CNC[C@@H]1CCC(=O)N1` , reported IC50: 0.4 nM

Memo: `Cc1c(/C=C(\F)c2ccc(CNCCO)cn2)cccc1-c1cccc(-c2ccn3c(=O)c(CNCCO)cnc3c2)c1C` , reported IC50: 4.8 nM

Memo: `COc1nc(-c2cccc(-c3cccc(-c4cc5c(=O)n(C)c(CNC[C@@H](O)CC(=O)O)nn5c4)c3Cl)c2Cl)ccc1CNC[C@@H]1CCC(=O)N1` , reported IC50: 0.1 nM

Memo: `COc1nc(-c2cccc(-c3cccc(-c4ccn5c(=O)c(CNC[C@@H]6CCC(=O)N6)c(Cl)nc5c4)c3Cl)c2Cl)ccc1CNC[C@@H]1CCC(=O)N1` , reported IC50: 12 nM

Memo: COc1nc(-c2cccc(-c3cccc(-c4ccn5c(=O)c(CNCC(C)(O)C6CC6)cnc5c4)c3Cl)c2Cl)ccc1CNC[C@@H]1CCC(=O)N1 (mixture of isomers) , reported IC50: 37 nM

Memo: `Cc1c(COc2cc(OCc3cncc(C#N)c3)c(CN3CC(CO)C3)cc2Cl)cccc1-c1cccc(-c2ccc3c(c2)C(=O)N(C)CC(=O)N3CCN2CC(CO)C2)c1C` , reported IC50: 0.7 nM

Memo: `Cn1cc(CNC[C@@H]2CCC(=O)N2)c2ccc(-c3cccc(-c4cccc(-c5ccn6c(=O)c(CNC[C@@H]7CCC(=O)N7)cnc6c5)c4Cl)c3Cl)cc21` , reported IC50: 1200 nM

Memo: `COc1nc(-c2cccc(-c3cccc(-c4ccc5c(CNC[C@@H]6CCCO6)cn(C)c5n4)c3Cl)c2Cl)ccc1CNC[C@@H]1CCC(=O)N1` , reported IC50: 920 nM

Memo: `Cc1c(COc2cc(OCc3cncc(C#N)c3)c(CNCCO)cc2Cl)cccc1-c1cccc(-n2cnc3cc(CNCCO)ccc3c2=O)c1` , reported IC50: 150 nM

Memo: `COc1nc(-c2cccc(-c3cccc(-c4ccn5c(=O)c(CNC[C@@H]6CCC(=O)N6)cnc5c4)c3Cl)c2Cl)ccc1CN1CC[C@@H](O)C1` , reported IC50: 0.3 nM

Memo: `COC(=O)C1CN(Cc2cnc3cc(-c4cccc(-c5cccc(-c6ccc(CNC[C@@H]7CCC(=O)N7)c(OC)n6)c5Cl)c4Cl)ncc3c2)C1` , reported IC50: 0.2 nM

Memo: `COc1nc(-c2cccc(-c3cccc(-c4cc5c(=O)n(C)c(CNCCC(F)F)nn5c4)c3Cl)c2Cl)ccc1CNC[C@@H]1CCC(=O)N1` , reported IC50: 14 nM

Memo: `COc1nc(-c2cccc(-c3cccc(-c4ccc5c(c4)CCCNC5)c3Cl)c2Cl)ccc1CNC[C@@H]1CCC(=O)N1` , reported IC50: 570 nM

Memo: `COc1nc(-c2cccc(-c3cccc(-c4cc5c(=O)n(C)c(CNC[C@@H]6CCC(=O)N6)nn5c4)c3Cl)c2Cl)ccc1CNC[C@@H]1CCC(=O)N1` , reported IC50: 310 nM

Memo: `COc1nc(-c2cccc(-c3cccc(-c4cc5c(=O)n(C)c(CNCC(C)(C)O)nn5c4)c3Cl)c2Cl)cc(Cl)c1CNC[C@@H]1CCC(=O)N1` , reported IC50: 29 nM

Memo: `NC1(Cc2ccc(-c3cccc(-c4cccc(-c5ccn6c(=O)c(CNC[C@@H]7CCC(=O)N7)cnc6c5)c4Cl)c3Cl)cc2)CC1` , reported IC50: 900 nM

Memo: `COc1nc(-c2cccc(-c3cccc(-c4ccn5c(=O)c(CNC[C@@H](O)CC(=O)N(C)C)cnc5c4)c3Cl)c2Cl)cc(F)c1CNC[C@@H]1CCC(=O)N1` , reported IC50: 0.1 nM

Memo: `COC(=O)C[C@H](O)CNCc1cnc2cc(-c3cccc(-c4cccc(-c5cc(F)c(CNC[C@@H]6CCC(=O)N6)c(OC)n5)c4Cl)c3Cl)ccn2c1=O` , reported IC50: 0.1 nM

Memo: `O=C1CC[C@@H](CNCc2cnc3cc(-c4cccc(-c5cccc(-c6ccn7c(=O)c(CNC[C@@H]8CCC(=O)N8)cnc7c6)c5Cl)c4Cl)ccn3c2=O)N1` , reported IC50: 7 nM

Memo: `Cc1c(COc2cc(OCc3cncc(C#N)c3)c(CNCCO)cc2Cl)cccc1-c1cccc(-c2ccn3c(=O)c(CNCCO)cnc3c2)c1` , reported IC50: 2 nM

Memo: `COc1nc(-c2cccc(-c3cccc(-c4cc(F)c5c(c4)CCN(C[C@@H]4CCC(=O)N4)C5)c3Cl)c2Cl)ccc1CNC[C@@H]1CCC(=O)N1` , reported IC50: 8.3 nM
